# System: CAKI-1 renal
Pick one and only one: active, inactive

// known answers, use as guide
Compound	Group
CC1(C)OC2C(COS(N)(=O)=O)SC(n3cnc4cncnc43)C2O1 (centres undefined)	inactive
CC1COCC(C)N1C1=C(Cl)C(=O)c2ccccc2C1=O (centres undefined)	inactive
CC1=C(C(=O)Nc2ccc(Cl)c(Cl)c2)C(c2ccccc2O)NC(=O)N1 (centres undefined)	inactive
COc1cccc(C2NC(=S)NC(C)=C2C(=O)Nc2ccc(Cl)c(Cl)c2)c1 (centres undefined)	inactive
COc1ccccc1CNCCCCCCCCCCCCN1C(=O)c2ccc3c4c(ccc(c24)C1=O)C(=O)N(CCCCCCCCCCCCNCc1ccccc1OC)C3=O	inactive

Request: Please indicate how the test categorized `Cc1ccc(C(C)C)cc1NC(=O)Nc1ccc([N+](=O)[O-])cc1` .
Result: inactive

Request: `O=C(Nc1cccc(-n2cc(-c3ccncc3)c(-c3ccc(O)c(Cl)c3)n2)c1)c1cccc(C(F)(F)F)c1`
Result: inactive

Request: Here is the next compound: `C=[CH][Sn]([CH]=C)([O]c1cccc2cccnc12)[O]c1cccc2cccnc12`
Result: inactive

Request: What would you report for `Nc1ccc2c(c1)c(N)nn2C(=O)Nc1ccc(Cc2ccccc2)cc1` ?
Result: inactive

Request: Would you kindly repeat that for Cc1cc(C(O)CN(C)C)cc2c1ccc1cc(C(C)C)ccc12 (centres undefined) ?
Result: inactive

Request: Try this compound next: `CC/C=C\C/C=C\C[C@H](O)C/C=C1/C(=O)C=C[C@@H]1C/C=C\CCCC(=O)OC`
Result: inactive

Request: `CN1CCN(c2nc(-c3ccncc3)nc3sc4c(c23)CCCCCC4)CC1` , same question.
Result: inactive

Request: Similarly, `N[C@@H]1CCCC[C@@H]1N.O=P([O-])([O-])CN(CP(=O)([O-])[O-])CP(=O)([O-])[O-].[Pt+2]` ?
Result: inactive

Request: And for `Cc1cc(Cl)ccc1NS(=O)(=O)c1ccc(-c2cnc(C3CC3)o2)cc1` ?
Result: active

* * *

# System: UO-31 renal
# Method: NCI tumour cell line growth inhibition, 48 h
Endpoint name: TGI

Previously resolved entries follow.
Compound	Result
CCOC(=O)c1cnccc1CC1(C#N)c2ccccc2C=CN1C(=O)c1ccccc1 (configuration not stated)	91.1 µM
N/C(=N\Nc1ccc(S(N)(=O)=O)cc1)c1cnccn1	> 100 µM
COC(=O)c1c(C)nc(C)c(NO)c1-c1ccccc1C(F)(F)F	74.2 µM
CC(C)C1(O)C(=O)N(c2c(F)c(F)c(F)c(F)c2F)C(=S)N1CCSc1ccccc1 (configuration not stated)	28.9 µM
O=C1CC(n2cccc2)c2c(Br)sc(Br)c21 (configuration not stated)	5.66 µM
CC(=O)Oc1ccc2c(c1)CC[C@@H]1C2CC[C@]2(C)C(=O)NC(=O)CC12 (some centres not stated)	> 100 µM
O=C1C=CC2(C=C1)C[C@H](NC(=O)C(F)(F)F)C(=O)O2	> 100 µM
CC(=O)Nc1cc(Nc2cc(=O)[nH]c(=O)[nH]2)ccc1C	> 100 µM

Proceeding to the next compound to report its TGI.
Request: Query the reported TGI for UO-31 renal; item: `CCN(CC)CCN(C(=O)C(C)(C)C)c1ccccc1N`
Result: > 100 µM

* * *

# Test system: SF-295 CNS
# Method: NCI tumour cell line growth inhibition, 48 h
Documented TGI across a set of molecules
// return numeric value only (unit: µM, not printed)

Consider the reported TGI for these molecules:
Molecule	Readout units	TGI
O=C(/C=C/c1cccs1)c1ccccc1Cl	µM	36.2
CC(C)C1(O)C(=O)N(c2c(F)c(F)c(F)c(F)c2F)C(=S)N1CCSc1ccccc1 (stereo not given)	µM	32.1
CC(=O)/C(=C\c1ccc(Cl)c(Cl)c1)C(=O)C(C)CN(C)C (stereo not given)	µM	16.5

Now look at this one.
Request: I'd like to know its TGI. The molecule in question is `CCOP(=O)(OCC)/C(C#N)=C/c1cccn1Cc1ccccc1`
Result: 97.6
